# target_under_test: gelatinase A-catalytic domain
# experiment_summary: gelatinase A catalytic domain hydrolysis of thiopeptolide, GA CD (T)
# Format: biochemical
# condition_parameters: thiopeptolide substrate
pIC50: −log10 of the molar value.
# pIC50 per record follows
quantity_kind: pIC50

[
  {
    "compound_string": "CC(C)C[C@H](NS(=O)(=O)c1ccc(-c2ccc(Br)cc2)cc1)C(=O)O",
    "measured_value": 7.82
  },
  {
    "compound_string": "CC(C)[C@H](NS(=O)(=O)c1ccc(-c2ccc(Br)cc2F)cc1)C(=O)O",
    "measured_value": 8.22
  },
  {
    "compound_string": "CC(C)[C@H](NS(=O)(=O)c1ccc(-c2ccc(F)cc2)cc1)C(=O)O",
    "measured_value": 7.29
  },
  {
    "compound_string": "CC(C)[C@H](NS(=O)(=O)c1ccc(-c2ccc(C#N)cc2)cc1)C(=O)O",
    "measured_value": 7.49
  },
  {
    "compound_string": "O=C(O)[C@H](Cc1ccccc1)NS(=O)(=O)c1ccc(-c2ccc(Br)cc2)cc1",
    "measured_value": 7.59
  },
  {
    "compound_string": "CC(C)[C@H](NS(=O)(=O)c1ccc(-c2cccc(Br)c2)cc1)C(=O)O",
    "measured_value": 6.14
  },
  {
    "compound_string": "O=C(O)CNS(=O)(=O)c1ccc(-c2ccc(Br)cc2)cc1",
    "measured_value": 7.68
  },
  {
    "compound_string": "COc1ccc(-c2ccc(S(=O)(=O)N[C@H](C(=O)O)C(C)C)cc2)cc1",
    "measured_value": 8.70
  },
  {
    "compound_string": "C[C@H](NS(=O)(=O)c1ccc(-c2ccc(Br)cc2)cc1)C(=O)O",
    "measured_value": 7.72
  }
]

---

# target_under_test: stromelysin catalytic domain (Homo sapiens)
# Sequence (P08254 100-272 limits assumed): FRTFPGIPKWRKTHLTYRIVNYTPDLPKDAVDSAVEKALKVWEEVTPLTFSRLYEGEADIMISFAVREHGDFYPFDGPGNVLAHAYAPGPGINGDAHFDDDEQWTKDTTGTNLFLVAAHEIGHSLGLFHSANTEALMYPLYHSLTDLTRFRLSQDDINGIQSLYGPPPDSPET
pIC50: −log10 of the molar value.
quantity_kind: pIC50

[
  {
    "compound_string": "CC(C)[C@H](NS(=O)(=O)c1ccc(-c2ccc(C(F)(F)F)cc2)cc1)C(=O)O",
    "quantity_kind": "pIC50",
    "measured_value": 7.85
  }
]

---

# target_under_test: full-length collagenase (Homo sapiens, UniProt P03956)
# Sequence (P03956 100-469): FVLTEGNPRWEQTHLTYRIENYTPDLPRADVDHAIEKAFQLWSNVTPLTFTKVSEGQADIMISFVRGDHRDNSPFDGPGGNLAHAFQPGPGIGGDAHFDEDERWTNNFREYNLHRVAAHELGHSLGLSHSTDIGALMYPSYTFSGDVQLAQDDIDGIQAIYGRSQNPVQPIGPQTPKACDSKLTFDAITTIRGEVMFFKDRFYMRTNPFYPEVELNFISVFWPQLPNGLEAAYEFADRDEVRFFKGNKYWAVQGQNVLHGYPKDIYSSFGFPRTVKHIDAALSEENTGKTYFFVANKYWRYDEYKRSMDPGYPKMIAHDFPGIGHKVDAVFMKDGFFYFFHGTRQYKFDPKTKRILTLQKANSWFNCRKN
pIC50: −log10 of the molar value.

[
  {
    "compound_string": "CC(C)[C@H](NS(=O)(=O)c1ccc(-c2ccc(Cl)cc2)cc1)C(=O)O",
    "pIC50": 5.12
  }
]
